System: PC12 cells
assay explanation: MTT toxicity (safety evaluation) on PC12 nerve cells
Format: cell-based
settings: PC12, 7.5 μM, 24 h
reported metric: Rank (cytotoxicity standard) 24 h
Number only, no unit.

Sample answers from the record:
INSERT INTO assay_data (smiles_structure, numeric_readout) VALUES
  ('CC(C)N1C/C(=C\c2cc(Cl)c(O)c(Cl)c2)C(=O)/C(=C/c2cc(Cl)c(O)c(Cl)c2)C1', 1),
  ('COc1cc(/C=C2\CNC/C(=C\c3cc(Cl)c(O)c(OC)c3)C2=O)cc(Cl)c1O', 0),
  ('COc1cc(/C=C2\CN(C)C/C(=C\c3cc(Cl)c(O)c(OC)c3)C2=O)cc(Cl)c1O', 1),
  ('CCN1C/C(=C\c2cc(Cl)c(O)c(Cl)c2)C(=O)/C(=C/c2cc(Cl)c(O)c(Cl)c2)C1', 1),
  ('COc1cc(/C=C2\CN(C(C)C)C/C(=C\c3cc(Cl)c(O)c(OC)c3)C2=O)cc(Cl)c1O', 2);

State the recorded Rank (cytotoxicity standard) 24 h for this entry: O=C1/C(=C/c2cc(Cl)c(O)c(Cl)c2)CNC/C1=C\c1cc(Cl)c(O)c(Cl)c1
0

And the next one, CN1C/C(=C\c2cc(Cl)c(O)c(Cl)c2)C(=O)/C(=C/c2cc(Cl)c(O)c(Cl)c2)C1 ?
1

----------
Test system: PC12 cells
assay explanation: MTT toxicity (safety evaluation) on PC12 nerve cells
Assay type: cell-based
settings: PC12, 7.5 μM, 48 h
Classify as follows. Reported Relative growth rate (%) 48 h greater than or equal to 90%: 1. Reported Relative growth rate (%) 48 h below: -1.

The examples below pair each entry with its known result.
INSERT INTO measurements (smiles_structure, target_system, class) VALUES
  ('O=C1/C(=C/c2cc(Cl)c(O)c(Cl)c2)CNC/C1=C\c1cc(Cl)c(O)c(Cl)c1', 'PC12 cells', 1),
  ('CN1C/C(=C\c2cc(Cl)c(O)c(Cl)c2)C(=O)/C(=C/c2cc(Cl)c(O)c(Cl)c2)C1', 'PC12 cells', 1),
  ('COc1cc(/C=C2\CN(C(C)C)C/C(=C\c3cc(Cl)c(O)c(OC)c3)C2=O)cc(Cl)c1O', 'PC12 cells', -1),
  ('COc1cc(/C=C2\CN(C)C/C(=C\c3cc(Cl)c(O)c(OC)c3)C2=O)cc(Cl)c1O', 'PC12 cells', -1),
  ('CCN1C/C(=C\c2cc(Cl)c(O)c(Cl)c2)C(=O)/C(=C/c2cc(Cl)c(O)c(Cl)c2)C1', 'PC12 cells', 1);

Reported Relative growth rate (%) 48 h at or above 90%? COc1cc(/C=C2\CNC/C(=C\c3cc(Cl)c(O)c(OC)c3)C2=O)cc(Cl)c1O
1

And the next one, CC(C)N1C/C(=C\c2cc(Cl)c(O)c(Cl)c2)C(=O)/C(=C/c2cc(Cl)c(O)c(Cl)c2)C1 ?
1

----------
Test system: PC12 cells
assay explanation: MTT toxicity (safety evaluation) on PC12 nerve cells
Type: cell-based
settings: PC12, 60 μM, 48 h
Quick reference for Relative growth rate (%) 48 h among some compounds
Report only the number, with the unit % understood.

Sample answers from the record:
INSERT INTO assay_data (smiles_structure, target_system, numeric_readout) VALUES
  ('COc1cc(/C=C2\CN(C)C/C(=C\c3cc(Cl)c(O)c(OC)c3)C2=O)cc(Cl)c1O', 'PC12 cells', 24.20),
  ('CCN1C/C(=C\c2cc(Cl)c(O)c(Cl)c2)C(=O)/C(=C/c2cc(Cl)c(O)c(Cl)c2)C1', 'PC12 cells', 30.33),
  ('CN1C/C(=C\c2cc(Cl)c(O)c(Cl)c2)C(=O)/C(=C/c2cc(Cl)c(O)c(Cl)c2)C1', 'PC12 cells', 98.48),
  ('COc1cc(/C=C2\CN(C(C)C)C/C(=C\c3cc(Cl)c(O)c(OC)c3)C2=O)cc(Cl)c1O', 'PC12 cells', 11.06),
  ('CC(C)N1C/C(=C\c2cc(Cl)c(O)c(Cl)c2)C(=O)/C(=C/c2cc(Cl)c(O)c(Cl)c2)C1', 'PC12 cells', 100.17);

State the recorded Relative growth rate (%) 48 h for this entry: O=C1/C(=C/c2cc(Cl)c(O)c(Cl)c2)CNC/C1=C\c1cc(Cl)c(O)c(Cl)c1
85.41

And the next one, COc1cc(/C=C2\CNC/C(=C\c3cc(Cl)c(O)c(OC)c3)C2=O)cc(Cl)c1O ?
109.26
